In this section, each of the molecules is paired with its reported Phytotoxicity.
- Test system: Oryza sativa
- EXPERIMENT NOTES: Pre-emergence phytotoxicity against Oryza sativa cv. Koshihikari (rice) assessed as phytotoxic crop injury visual ratings at 25 g ai/ha measured after 14 days post treatment under flooded conditions
- Type: organism-based
- CONDITIONS USED: in vivo, other, 336 h
The reply should contain only the number, in %.

Endpoint output: Phytotoxicity of C=CCOc1cc(N2C(=O)OC(=C(C)C)C2=O)c(F)cc1Cl . Value? 0

Endpoint output: Phytotoxicity of C#CCSc1cc(N2C(=O)OC(=C(C)C)C2=O)c(F)cc1Cl . Value? 0

Now consider a different molecule.
Endpoint output: Phytotoxicity of CC(C)=C1OC(=O)N(c2cc(OC(C)C)c(Cl)cc2F)C1=O . Value? 0
